B1: Caulobacter ParB omega fusion; a variant is named by its letters at X, in order, B8GW30 (parent)
chain: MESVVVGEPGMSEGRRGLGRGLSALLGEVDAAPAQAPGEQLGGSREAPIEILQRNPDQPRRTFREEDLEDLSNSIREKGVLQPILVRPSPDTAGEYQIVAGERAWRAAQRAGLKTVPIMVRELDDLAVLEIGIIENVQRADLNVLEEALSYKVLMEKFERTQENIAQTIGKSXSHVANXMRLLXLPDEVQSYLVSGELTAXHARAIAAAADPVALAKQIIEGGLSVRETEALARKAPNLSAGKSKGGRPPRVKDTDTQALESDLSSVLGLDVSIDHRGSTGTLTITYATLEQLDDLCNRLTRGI

Variants of: B1
METHOD_SUMMARY: one-hybrid fitness for binding parS DNA (scaled: cognate 1, non-cognate 0); higher = stronger binding
ASSAY_SETUP: with parS DNA site
In all, about 81,000 sequences were measured (“one-hybrid fitness for binding parS DNA”: median about -0.17, highest 2% from about 0.51 on). The entries come from a sample that favours the highest values as a whole.
MEASURED_ATTRIBUTE: one-hybrid fitness for binding parS DNA

INSERT INTO assay_data (sequence_variant, value_observed) VALUES
  ('SRNE', '≤ 0.2'),
  ('RFET', 0.655),
  ('RHLA', 0.533),
  ('LTAC', '≤ 0.2'),
  ('YWTY', '≤ 0.2'),
  ('DFLA', '≤ 0.2'),
  ('EFET', '≤ 0.2'),
  ('RLLA', 0.605),
  ('RMET', 0.731),
  ('RIET', 0.709),
  ('WVAL', '≤ 0.2'),
  ('QKSV', '≤ 0.2'),
  ('RMEM', 0.309),
  ('RELA', '≤ 0.2'),
  ('NHLA', '≤ 0.2'),
  ('PFET', '≤ 0.2');

FYI, the data here is from a collection of fitness landscapes (doi:10.1016/j.celrep.2020.107928).
